Cited source: the kinase profiling compilation of Christmann-Franck et al. (2016)

biological target: TGFBR2 (human) (UniProt P37173); test: radiometric filter-binding kinase assay, Kinase HotSpot; conditions: compound 0.5 µM; ATP 10 µM
Sequence (P37173 whole entry, looked up): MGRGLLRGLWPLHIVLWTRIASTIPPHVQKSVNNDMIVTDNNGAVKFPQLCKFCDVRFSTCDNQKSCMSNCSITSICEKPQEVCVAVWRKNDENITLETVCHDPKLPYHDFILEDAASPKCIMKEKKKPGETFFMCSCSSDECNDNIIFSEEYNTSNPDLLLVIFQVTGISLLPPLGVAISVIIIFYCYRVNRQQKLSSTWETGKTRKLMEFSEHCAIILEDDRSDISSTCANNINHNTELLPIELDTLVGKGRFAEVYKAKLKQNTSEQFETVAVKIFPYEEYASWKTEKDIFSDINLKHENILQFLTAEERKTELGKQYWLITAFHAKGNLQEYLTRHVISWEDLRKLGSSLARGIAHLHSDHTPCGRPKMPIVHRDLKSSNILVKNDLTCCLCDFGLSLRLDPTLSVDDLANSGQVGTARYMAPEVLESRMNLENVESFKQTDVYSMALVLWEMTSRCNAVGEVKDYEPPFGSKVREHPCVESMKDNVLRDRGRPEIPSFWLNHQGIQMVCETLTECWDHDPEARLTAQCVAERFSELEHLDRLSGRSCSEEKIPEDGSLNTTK
MEASURED_ATTRIBUTE: residual activity (%)
Write the number in % without appending the unit.

Task: Read the entry "COc1cc2c(Nc3ccc(Br)cc3F)ncnc2cc1OCC1CCN(C)CC1" and write its reported residual activity.
Output: 102

Task: // fetch residual activity given entry "CCCCc1c(-c2ccc(O)cc2)[nH]c2nccnc12"
Output: 55

Task: Specify reported residual activity for the molecule shown: "O=c1c(-c2ccc(F)cc2)c(-c2ccncc2)[nH]n1-c1ccc(Cl)cc1"
Output: 97.7

Task: Assign residual activity to the following record: "O=C(c1ccccc1)c1ccc(N2CCOCC2)cc1O"
Output: 109

Task: Give the reported value of residual activity for this record: "O=c1[nH]c2ccccc2n1C1CCN(Cc2ccc(-c3nc4cc5[nH]cnc5cc4nc3-c3ccccc3)cc2)CC1"
Output: 95.5

Task: Tell me its residual activity given "COc1cc2c(cc1OC)-c1[nH]nc(Nc3cccc(F)c3)c1C2" as the entry.
Output: 100

Task: Write down residual activity measured for item "COc1cccc(-c2cc(=O)c3ccccc3o2)c1N"
Output: 115

Task: State its residual activity for this molecule: "O=C1NC(=O)c2cc(Nc3ccc(F)cc3)c(Nc3ccc(F)cc3)cc21"
Output: 85.2

Task: Identify measured residual activity corresponding to "CCc1nc(-c2ccc(OC)cc2)[nH]c1-c1ccncc1"
Output: 140

Task: Indicate its recorded residual activity; the molecule in question is "COc1cc2ncnc(Nc3ccc(O)c(Br)c3)c2cc1OC"
Output: 105

Task: For the molecule "c1ccc(-c2cnc(Nc3ccc(OCCN4CCCC4)cc3)s2)cc1" , give its measured residual activity value.
Output: 129

Task: Given "O=C1NC(=O)c2c1c1c3ccccc3[nH]c1c1[nH]c3cc(Br)ccc3c21" , respond with its residual activity.
Output: 61.8

Task: Tell me residual activity reported for "O=c1c2ccccc2[nH]c(=S)n1CCN1CCC(=C(c2ccc(F)cc2)c2ccc(F)cc2)CC1"
Output: 119

Task: Quick one: give measured residual activity for "N#Cc1c(NC(=O)c2cccc3ccccc23)sc2c1CCCC2"
Output: 104

Task: Item "FC(F)(F)c1ccc(/C=C/c2nc(COc3ccc(CCCCn4ccnn4)cc3)co2)cc1" : provide residual activity
Output: 103

Task: Input "CCOc1cc2ncnc(Nc3cccc(Br)c3)c2cc1OCC" , output reported residual activity.
Output: 83.4

----------
biological target: FGFR3 (human) (UniProt P22607); test: radiometric filter-binding kinase assay, Kinase HotSpot; details: compound 0.5 µM; ATP 10 µM
Sequence (P22607 whole entry, looked up): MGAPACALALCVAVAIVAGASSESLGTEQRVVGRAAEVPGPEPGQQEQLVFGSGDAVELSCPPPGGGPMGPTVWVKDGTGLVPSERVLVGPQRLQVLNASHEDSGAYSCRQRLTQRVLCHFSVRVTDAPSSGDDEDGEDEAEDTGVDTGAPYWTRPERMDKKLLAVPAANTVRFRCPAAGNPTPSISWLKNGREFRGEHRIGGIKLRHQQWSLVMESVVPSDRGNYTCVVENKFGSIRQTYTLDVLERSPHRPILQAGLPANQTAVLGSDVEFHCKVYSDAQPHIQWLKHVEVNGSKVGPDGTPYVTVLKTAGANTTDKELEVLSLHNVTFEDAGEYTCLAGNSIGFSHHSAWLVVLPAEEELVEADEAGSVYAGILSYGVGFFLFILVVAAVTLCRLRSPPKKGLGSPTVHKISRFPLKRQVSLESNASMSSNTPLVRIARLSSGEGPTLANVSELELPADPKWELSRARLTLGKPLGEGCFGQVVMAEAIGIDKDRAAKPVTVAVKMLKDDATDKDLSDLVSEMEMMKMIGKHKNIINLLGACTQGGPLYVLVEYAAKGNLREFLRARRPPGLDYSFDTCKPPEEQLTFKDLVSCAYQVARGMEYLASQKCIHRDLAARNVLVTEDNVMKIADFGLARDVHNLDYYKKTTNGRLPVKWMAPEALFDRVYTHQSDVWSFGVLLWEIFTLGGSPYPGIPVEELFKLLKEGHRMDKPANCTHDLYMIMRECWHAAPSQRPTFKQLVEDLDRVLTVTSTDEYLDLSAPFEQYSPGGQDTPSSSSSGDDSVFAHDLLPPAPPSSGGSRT
MEASURED_ATTRIBUTE: residual activity (%)
Quick reminder: number only, in %, skip the unit.

Task: Determine from records and report residual activity for "CCc1nc(-c2ccc(OC)cc2)[nH]c1-c1ccncc1"
Output: 99.8

Task: Consider the molecule "O=C(O)c1ccc2c3c1cccc3c(=O)n1c3ccccc3nc21" . State its measured residual activity.
Output: 92.9

Task: Provide measured residual activity value, entry: "N#CCCc1ccc2c(c1)-c1[nH]c3ccc([N+](=O)[O-])cc3c1CC(=O)N2"
Output: 90.3

Task: # return recorded residual activity for input "O=c1c2ccccc2[nH]c(=S)n1CCN1CCC(=C(c2ccc(F)cc2)c2ccc(F)cc2)CC1"
Output: 99.3

Task: Return residual activity (reported value) for this molecule: "O=S(=O)(NCCNC/C=C/c1ccc(Br)cc1)c1cccc2cnccc12"
Output: 91.3

Task: Determine its reported residual activity: "FC(F)(F)c1ccc(/C=C/c2nc(COc3ccc(CCCCn4ccnn4)cc3)co2)cc1"
Output: 88.4

Task: Specify reported residual activity for the molecule shown: "O=c1[nH]c2ccccc2n1C1CCN(Cc2ccc(-c3nc4cc5[nH]cnc5cc4nc3-c3ccccc3)cc2)CC1"
Output: 101

Task: In one line, give reported residual activity of the entry "COc1cc2c(N3CCN(C(=O)Nc4ccc(OC(C)C)cc4)CC3)ncnc2cc1OCCCN1CCCCC1" .
Output: 93.2

Task: Quickly give me recorded residual activity for "O=C(c1ccccc1)c1ccc(N2CCOCC2)cc1O"
Output: 104

Task: State its residual activity for this molecule: "O=c1c(-c2ccc(F)cc2)c(-c2ccncc2)[nH]n1-c1ccc(Cl)cc1"
Output: 88.1
